VALUE_TYPE: logP
Write the value as a bare number.

Example molecules with recorded logP:
CCOCCOCCOP(=O)(N1CC1)N1CC1 | 0.1
CCn1cc(C(=O)O)c(=O)c2cc(F)c(N3CCN(C)CC3)c(F)c21 | 0.3
CCn1cc(C(=O)OCOC(C)=O)c(=O)c2ccc(C)nc21 | 1.21
COC(=O)NC1=NCC(c2cccc(Br)c2)N1 (configuration not stated) | 2.09
CN(C)C(=O)OCc1cccc([N+](=O)[O-])c1 | 1.98

In: Which value of logP has been reported for "O=C1CC2(CCCC2)C(=O)N1OCc1ccccc1" in the records?
Out: 2.3

In: Also "Cc1c(F)c(F)c(C(=O)O)c(F)c1F" ?
Out: 3.15

In: Also "N#Cc1cccnc1" ?
Out: 0.36

In: Also "N#CCCO" ?
Out: -0.94

In: Also CCCCc1ccc(OCC(OC(=O)n2ccnc2)C(C)(C)C)cc1 (configuration not stated) ?
Out: 4.97

In: Also N=C(NCC#CCC(NC(=O)C(Cc1ccc2ccccc2c1)Cc1cccc2ccccc12)C(=O)NC(CC1CCCCC1)C(O)CC(=O)NCCN1CCOCC1)N[N+](=O)[O-] (configuration not stated) ?
Out: 4.73

In: Also CCNP(=O)(OCC)ON=C(C#N)c1ccc(OC)cc1 (configuration not stated) ?
Out: 2.39

In: Also "CCOP(=O)(O)Cc1ccc(F)cc1" ?
Out: 1.25

In: Also "CCOC(=O)C1=C(C)NC(C)=C(C(=O)OCC)C1c1ccccc1/C=C/C(=O)OC(C)(C)C" ?
Out: 5.2

In: Also "CCCCCCCC(=O)N[C@@H]1C(=O)N2[C@@H]1SC(C)(C)[C@@H]2C(=O)O" ?
Out: 3.32

In: Also "COP(=S)(OC)Oc1cc(Cl)c(Cl)cc1Cl" ?
Out: 4.88

In: Also "CCNc1nc(C)c(C(=O)CCN(CC)CC)s1" ?
Out: 2.72

---

Category scheme (logP): lo (below 2), mid (2 to below 3), hi (3 or more)

# count of solved cases: 6
NS(=O)(=O)c1cc2c(cc1Cl)NC(C(Cl)(Cl)Cl)NS2(=O)=O (configuration not stated) | lo
Cc1ccc(Cc2cnc(NCCCCc3ncc(Br)cc3C)[nH]c2=O)cn1 | hi
C[C@H](CN1CCOCC1)C(C(=O)N1CCCC1)(c1ccccc1)c1ccccc1 | hi
CC1CC2CC=CCC2(N)c2ccccc21 (configuration not stated) | hi
CCCCN1Cn2c(nc3ccccc3c2=O)C1C (configuration not stated) | lo
NC(=O)Nc1ccc(C(=O)O)cc1 | lo

In: Exercise: read the entry "Nc1cc(Cl)ccc1Cl" and state which class it falls under.
Out: mid

In: Also CNC(=O)NC(=O)C(C)(C(=O)OC)C1C=CCCC1 (configuration not stated) ?
Out: lo

In: Also CNC12CCCCC1COc1ccccc12 (configuration not stated) ?
Out: hi

In: Also "NC(=O)c1csc([C@@H]2O[C@H](CO)[C@@H](O)[C@H]2O)n1" ?
Out: lo

In: Also Cc1onc(-c2c(F)cccc2Cl)c1C(=O)NC1C(=O)N2C1SC(C)(C)C2C(=O)O (configuration not stated) ?
Out: mid

---

VALUE_TYPE: logP
Write the value as a bare number.

In: Which value of logP has been reported for "Clc1cccc2cccc(Cl)c12" in the records?
Out: 4.3
